Provenance of the data: ChEMBL document CHEMBL5442175

This document collects Ki values reported for Histamine H3 receptor (Homo sapiens).
Form entry: value (nM) — number only.

Sample answers from the record:
{"smiles-record": "COC(=O)C1=C(C)NC(C)=C(C(=O)OCCCN2CCC(c3ccccc3)(c3ccccc3)CC2)[C@H]1c1cccc([N+](=O)[O-])c1", "endpoint-result": 2140}
{"smiles-record": "S=C(NCCCc1c[nH]cn1)NCCCN(Cc1ccc(Cl)c(Cl)c1)c1ccc(Br)cn1", "endpoint-result": 104}
{"smiles-record": "c1nc(CC2CCNCC2)c[nH]1", "endpoint-result": 0.63}
{"smiles-record": "N=C(N)SCCc1cnc[nH]1", "endpoint-result": 0.632}
{"smiles-record": "c1cc(CN2CCCNCCNCCCNCC2)ccc1CN1CCCNCCNCCCNCC1", "endpoint-result": 2.74}
{"smiles-record": "NCCc1cn(S(=O)(=O)c2c(Cl)nc3sccn23)c2ccccc12", "endpoint-result": 1980}

Return value of Ki for input `O=c1ccc2ccc(OCCCCN3CCN(c4cccc5sccc45)CC3)cc2[nH]1` , no commentary.
2610
